subject-of-test: B1R of the rat (Rattus norvegicus, UniProt P97583)
Construct: expressed in transfected cells; host or cells: CHO K1 cells (Chinese hamster ovary), stably transfected
Sequence (P97583 whole entry): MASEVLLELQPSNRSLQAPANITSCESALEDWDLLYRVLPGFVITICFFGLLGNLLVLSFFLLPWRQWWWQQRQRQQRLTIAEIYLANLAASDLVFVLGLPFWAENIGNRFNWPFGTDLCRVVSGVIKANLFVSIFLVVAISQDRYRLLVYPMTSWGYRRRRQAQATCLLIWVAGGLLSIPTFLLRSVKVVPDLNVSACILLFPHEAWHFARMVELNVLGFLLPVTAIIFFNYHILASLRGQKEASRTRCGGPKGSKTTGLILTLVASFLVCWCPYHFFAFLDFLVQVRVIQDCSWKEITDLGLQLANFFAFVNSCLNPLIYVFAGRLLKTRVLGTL
assay-notes: FLIPR Ca2+ functional assay, B1R antagonism, rat B1R in CHO K1 cells
Format: cell-based
condition-info: test substance 10 μM; rB1R CHO K1 cells; agonist Des-Arg9 bradykinin at EC80; % of maximum achievable inhibition
experimental-readout: inhibition at 10 µM (%)
Give the value in % but do not write % after it.

Please review the following examples before continuing.
compound: Cc1ccc(S(=O)(=O)N2CCn3cccc3C2CC(=O)NC2CCc3cc(CN4CCN(C)CC4)ccc3C2)cc1 (stereo not drawn)
inhibition at 10 µM / %: 102
--
compound: COc1ccc2cc(S(=O)(=O)N3CCn4cccc4C3CC(=O)NC3CCCc4cc(CN5CCOCC5)ccc43)ccc2c1 (stereo not drawn)
inhibition at 10 µM / %: 102
--
compound: CNCc1ccc2c(c1)CCCC2NC(=O)CC1c2cccn2CCN1S(=O)(=O)c1ccc2cc(OC)ccc2c1 (stereo not drawn)
inhibition at 10 µM / %: 103
--
compound: COc1cc(C)c(S(=O)(=O)N2CCn3cccc3C2COCC(=O)N2CCC(c3ccncc3)CC2)c(C)c1 (stereo not drawn)
inhibition at 10 µM / %: 103
--
compound: CC(C)(C)NCc1ccc2c(c1)CCC(NC(=O)CC1c3cccn3CCN1S(=O)(=O)c1cccc(C(F)(F)F)c1)C2 (stereo not drawn)
inhibition at 10 µM / %: 102

-- ask // lookup inhibition at 10 µM | system=B1R of the rat (Rattus norvegicus, UniProt P97583) | key= O=C(CC1c2cccn2CCN1S(=O)(=O)c1ccccc1)N1CCN(c2ncccn2)CC1 (stereo not drawn)
-- reply 20.8

-- ask // lookup inhibition at 10 µM | system=B1R of the rat (Rattus norvegicus, UniProt P97583) | key= Cc1ccc(S(=O)(=O)N2CCn3cccc3C2CC(=O)NC2CCc3cc(CNCc4ccccc4)ccc3C2)cc1 (stereo not drawn)
-- reply 96.8

-- ask // lookup inhibition at 10 µM | system=B1R of the rat (Rattus norvegicus, UniProt P97583) | key= CCC(C)NCc1ccc2c(c1)CCCC2NC(=O)CC1c2cccn2CCN1S(=O)(=O)c1ccc2cc(OC)ccc2c1 (stereo not drawn)
-- reply 99.1

-- ask // lookup inhibition at 10 µM | system=B1R of the rat (Rattus norvegicus, UniProt P97583) | key= Cc1ccc(S(=O)(=O)N2CCn3cccc3C2CC(=O)NC2CCCc3cc(CNC(C)(C)C)ccc32)cc1 (stereo not drawn)
-- reply 101

-- ask // lookup inhibition at 10 µM | system=B1R of the rat (Rattus norvegicus, UniProt P97583) | key= Cc1ccc(S(=O)(=O)N2CCn3cccc3C2CC(=O)NC2CCCc3cc(CN4CCOCC4)ccc32)cc1Cl (stereo not drawn)
-- reply 101

-- ask // lookup inhibition at 10 µM | system=B1R of the rat (Rattus norvegicus, UniProt P97583) | key= CNCc1ccc2c(c1)CCCC2NC(=O)CC1c2cccn2CCN1S(=O)(=O)c1ccc(C)cc1 (stereo not drawn)
-- reply 104

-- ask // lookup inhibition at 10 µM | system=B1R of the rat (Rattus norvegicus, UniProt P97583) | key= O=C(CC1c2cccn2CCN1S(=O)(=O)c1ccccc1)N1CCN(c2ncc(C(F)(F)F)cc2Cl)CC1 (stereo not drawn)
-- reply 17.9

-- ask // lookup inhibition at 10 µM | system=B1R of the rat (Rattus norvegicus, UniProt P97583) | key= Cc1ccc(S(=O)(=O)N2CCn3cccc3C2CC(=O)NC2CCc3cc(CN4CCCC4)ccc3C2)cc1Cl (stereo not drawn)
-- reply 100

-- ask // lookup inhibition at 10 µM | system=B1R of the rat (Rattus norvegicus, UniProt P97583) | key= COc1ccc2cc(S(=O)(=O)N3CCn4cccc4C3CC(=O)NC3CCc4cc(CNCc5ccccc5)ccc4C3)ccc2c1 (stereo not drawn)
-- reply 103

-- ask // lookup inhibition at 10 µM | system=B1R of the rat (Rattus norvegicus, UniProt P97583) | key= O=C(CC1c2cccn2CCN1S(=O)(=O)c1cccc(C(F)(F)F)c1)N1CCN(c2ccccc2F)CC1 (stereo not drawn)
-- reply 24.4

Origin of measurements: patent US8158628B2
